For each entry below, report its GI50 value.
Tested on: SK-MEL-28
assay-method-text: NCI tumour cell line growth inhibition, 48 h
The source made the active and inactive calls. Rule as the data show it: active = GI50 up to about 1.1 µM and inactive = higher.

Recall the recorded GI50 for "COc1ccc2cc3nc(O)cc(O)c3cc2c1OC" with SK-MEL-28 and state it.
> 100 µM (inactive)

Then this compound: "CC(C)(C)OC(=O)N/N=C(/N)Cc1ccc(Cl)cc1"
> 100 µM (inactive)

What would you report for "CS(=O)(=O)c1ccc(C2=C(c3ccccc3)C(=O)OC2)cc1" ?
> 100 µM (inactive)

And the next one, c1cc2cc3c4c5c(cc6ccc7cc8cc9c%10c8c8c7c6c5c8c5c%10c(c1C9N1CCOCCOCCOCCOCCOCC1)c2c45)C3 (stereo not drawn) ?
> 100 µM (inactive)

# repeat for "Nc1nc2sc3ccccc3c(=O)n2n1"
> 100 µM (inactive)

Next compound: "Cc1c(C)c(C)c(-n2c(=O)n(C)c(=O)n2-n2c(=O)n(C)c(=O)n2-c2c(C)c(C)c(C)c(C)c2C)c(C)c1C"
> 100 µM (inactive)

Again, but for "COc1cc(OC)cc(Oc2nc3ccccc3nc2C(=O)O)c1"
> 100 µM (inactive)

Try CC(Br)C(=O)NN1C2=C(Nc3ccccc31)c1cccc3cccc2c13 (stereo not drawn) next.
> 100 µM (inactive)

Would you kindly repeat that for "O=C(COC(=O)c1ccccc1)c1ccc(Br)cc1" ?
16.9 µM (inactive)

Now consider "CCc1nnc2sc(-c3ccc(-c4ccc(Cl)cc4Cl)o3)nn12" .
> 100 µM (inactive)

Then this compound: "CCN(CC)CCn1c2cc3c(cc2c(=O)c2cccnc21)OCO3"
7.91 µM (inactive)

Same question for "COC1(OC)CC(CO)(CNc2nc(N)nc(Cl)c2/C=N\O)C1" please.
48.9 µM (inactive)

One more compound: "COc1ccc(/N=C\c2ccc(N(CCC#N)S(=O)(=O)c3ccccc3)cc2C)cc1"
39.9 µM (inactive)

Same read-out for "N=C1N(S(=O)(=O)c2ccccc2)[C@@H](Cc2ccccc2)[C@H](c2ccccc2)C1(c1ccccc1)c1ccccc1" ?
> 100 µM (inactive)

Okay, and "C[Si](C)(C)/C=C\CCCN1C(=O)CCC1=O" ?
> 100 µM (inactive)

// same read-out, input: "O=C(NOC(=O)c1ccc([N+](=O)[O-])cc1)c1ccc(Cl)cc1"
> 100 µM (inactive)

Let us now turn to "C[N+](C)(C)CCOC(=O)/C=C/c1c[nH]cn1"
> 500 µM (inactive)

Please give the result for "CC#CC(OCC)(OCC)OCC" too.
> 100 µM (inactive)

Would you kindly repeat that for "O=C(CCc1cc(-c2ccccc2)[nH]c(=S)n1)Nc1ccccc1[N+](=O)[O-]" ?
> 100 µM (inactive)

Check CN(C)CCNC1=Nc2ccccc2C(=O)N2CSCC12 (stereo not drawn) too.
> 100 µM (inactive)

Can you check "CC(=O)CC(=O)ON(C)C(C)=O" next?
> 100 µM (inactive)

Please do the same for "COC(=O)[C@@](C)(COC(=O)C(C)(C)C)NC(=O)OC(C)(C)C" as well.
> 100 µM (inactive)

What do you have for "CCNC(=O)c1cc(Cl)ccc1NC(=O)C12CC3CC(CC(C3)C1)C2" ?
35.8 µM (inactive)

The values you see were collected from ChEMBL document CHEMBL1201862.
